Tested on: MDA-MB-435
Experiment: NCI tumour cell line growth inhibition, 48 h
recordedEndpoint: GI50

The cases that follow already have their GI50 on record.
compound	GI50
NS(=O)(=O)c1cccc(-c2ccc3c(NC(=O)C4CC4)n[nH]c3c2)c1	5310 nM
Cc1cc(NC(=O)c2cnc(N3CCN(CCOCCOCCOCCOCCC(=O)N[C@H](C(=O)N4C[C@H](O)C[C@H]4C(=O)N[C@@H](C)c4ccc(-c5scnc5C)cc4)C(C)(C)C)CC3)cn2)c2ncccc2c1	2250 nM
O=C1CSC(c2ccccc2O)N1c1nnc(Cn2ccnc2)o1 (configuration not stated)	2350 nM
CCN(CC)CCCC(C)Nc1c(-c2ccccc2)cnc2cc(Cl)ccc12 (configuration not stated)	2240 nM

Prompt: Form field: reported GI50 of CCOC(=O)C1=C(C)N2C(=NC3=C(CCC/C3=C\c3ccc(Cl)cc3)C2c2ccc(Cl)cc2)S1 (configuration not stated)
Response: 2930 nM

Prompt: Sample NNc1c2ccccc2nc2ccccc12 — what was its GI50?
Response: 5080 nM

====

TGI by entry:
Test system: HL-60(TB) leukemia
Test: NCI tumour cell line growth inhibition, 48 h

compound	TGI
Cc1ccc(N=C2SC(c3ccc(C)cc3)(c3ccc(C)cc3)c3ccccc32)cc1	> 100 µM
CCN(CC)CCCC(C)Nc1c(-c2ccccc2)cnc2cc(Cl)ccc12 (stereo not drawn)	23.8 µM
CCN(C(=O)CN1CCN(c2cc3c(cc2F)c(=O)c(C(=O)O)cn3CC)CC1)c1nc(-c2ccccc2)cs1	0.47 µM
NS(=O)(=O)c1cccc(-c2ccc3c(NC(=O)C4CC4)n[nH]c3c2)c1	> 22.5 µM
CC(=O)NNc1nc(C)c(C(=O)/C=C/c2ccc(/C=C/C(=O)c3sc(NNC(C)=O)nc3C)cc2)s1	> 100 µM
COc1cc2c(cc1C)NC(=O)/C2=C\c1ccncc1	> 100 µM
COC(=O)/C=C/c1cc(OC)c2oc(-c3ccc(OC)c(OC)c3)c(C(=O)OC)c2c1	> 100 µM
O=C(NN1C(=O)CSC1c1ccc(F)cc1)C(O)c1ccccc1 (stereo not drawn)	> 100 µM
COC1(C)C(=O)N2C1N(C(=O)OCc1ccccc1)CC2(C)C (stereo not drawn)	> 100 µM
C=C1CC[C@@H]2[C@](C)(COC(C)=O)[C@H](OC(C)=O)CC[C@@]2(C)[C@@H]1CC(Nc1ccc(S(=O)(=O)Nc2nccs2)cc1)C1=CCOC1=O (stereo partly drawn)	13.3 µM

Prompt: API: value(readout= TGI, system= HL-60(TB) leukemia, query= COc1cc(OC)c2c(O)c(S(=O)(=O)c3ccc(C)cc3)c(=O)oc2c1 )
Response: > 100 µM

Prompt: Which TGI is reported with HL-60(TB) leukemia for this entry: ONC1=Nc2ccccc2OCc2cc(Br)c(Br)cc2COc2ccccc2N=C1NO ?
Response: 25 µM

====

Test system: MDA-MB-435
Assay: NCI tumour cell line growth inhibition, 48 h
recordedEndpoint: TGI

Here is how some compounds turned out for TGI.
compound	recordedEndpoint	result
Cc1nn(C(=O)c2ccncc2)c2c1C(c1cccc([N+](=O)[O-])c1)SC(N)=N2 (configuration not stated)	TGI	> 10 µM
O=C(Nc1cnc(C(F)(F)F)cn1)c1cc(Cl)ccc1O	TGI	3.23 µM
CCOC1OC(=O)[C@H]2[C@@H]1[C@@H]1CC[C@H]2O1 (some centres not stated)	TGI	> 100 µM
COc1cc(C(c2cccc3ccccc23)N2C(=O)CCC2C(=O)NCc2ccccc2)cc(OC)c1OC (configuration not stated)	TGI	> 100 µM
C=CCCCOC1[C@H](OCc2ccccc2)C(OCc2ccccc2)C(OC)O[C@@H]1CNC(=O)c1cccc(I)c1 (some centres not stated)	TGI	> 100 µM

Prompt: Please look up its TGI: CC(=O)O.CC(=O)O.CC(=O)O.CC(=O)O.[Rh].[Rh]
Response: 55.4 µM

Prompt: What does the record list as TGI for Cc1cc(S(=O)(=O)Nc2nc3ccccc3n2-c2ccccc2)c(S)cc1Cl ?
Response: > 100 µM

Prompt: Which TGI value is on record for O=C(Nc1ccccc1Cl)c1cccc(NC2=C(Cl)C(=O)N(Cc3ccccc3)C2=O)c1 ?
Response: 10.3 µM

Prompt: Query (compound): Cc1ccc(SC[C@@]2(C(F)F)NC(=O)NC2=O)cc1 ; field requested: TGI
Response: > 100 µM

Prompt: For the compound shown here, O=C1CCC(N2C(=O)c3cccc(NCCCC4CCN(CCNC(=O)c5cc6c(o5)C(=O)c5ccccc5C6=O)CC4)c3C2=O)C(=O)N1 (configuration not stated) , give the reported TGI.
Response: 0.335 µM

Prompt: Data request, read-out TGI, for COc1cc([C@H]2Oc3c(OC)cc(CCCO)cc3[C@@H]2CO)ccc1O
Response: > 100 µM

Prompt: Reported TGI, compound COc1ccc2c(c1)/C(=C\c1c[nH]c3ccc(OC)cc13)C(=O)N2 : ____
Response: 5.17 µM
